assay: soluble fraction after stress (log2 fold change); higher = more stays soluble; pooled small domains, quantitative proteomics; conditions: stress: 50 degC
Okay, here is how we bin by soluble fraction (log2): one = under -0.4, two = from -0.4 up to 0.1, three = 0.1 and over

Task: Form: Item = `HMTSVFQNSDGTWGHLTKTVNPLIYTIEYGRRTGFSSREEAEESYQRSLTSYQDQLSKLKKERD` ; Class = ?
Output: three

Task: Form: Item = `HMTLDDSFYQKADEIIANHTKEERSLIPIIQDIQAEYRYLPPELLTYVAKEIGITDARAYSVASFYENFS` ; Class = ?
Output: one

Task: Form: Item = `HMLPKLAEEYAIMEIRGKGENLTAKLINKGGDSFMVRNGTVLQTGHRIDEITQTYVRAEINGMKDYLYFA` ; Class = ?
Output: three

Task: Form: Item = `HMNADKEALIAAAYRNSLIENFGTENVERYEERFNKWADKHDRQGMPMYPTIEKWMNEDNIA` ; Class = ?
Output: three

Task: Form: Item = `HMRRSKQERQQAIKTLISNEQIQRQEDLVRKLNEAGWEVTQATISRDITEMQLVKVPLPTGGFAYAVM` ; Class = ?
Output: three

Task: Form: Item = `HMGSLKISNPVKDTLWIQGVDGLKSIEIYSSTGQLVKTILGNQGDVSSLPKGVYFLKINTPSESLTAKIIK` ; Class = ?
Output: two

Task: Form: Item = `HMSEQTLEDVRRLIEHLPESQKEVVKMRYYQDLSFKEIADLKGISINTALGRMHYAINNMRKMAKEYGL` ; Class = ?
Output: one

Task: Form: Item = `HMASVVEQVQVSNDISLFRQQNSPYWQARFKVAGKWYTRTTKRTEQTQAAFRAAELRSEVQTKISQGIPLR` ; Class = ?
Output: one

Task: Form: Item = `HMSMSLQFLSRRIRLQREKRGLKQHDIAHALQISPQAVSKWERGENAPDIALLRPLAGLLGVSIDWLMGGD` ; Class = ?
Output: one

Task: Form: Item = `HMVDGTPALTDLKKVSKPGRRHYTGSQEIPRVLNGLGISIVSTSKGIMTGAQARRQKVGGELLAFV` ; Class = ?
Output: three

Task: Form: Item = `HMSDYKSYLQELVQTDKKSLSYNVVKETGPAHDKTFEVEVEVDGIIYAHGVGKSKKEAEQNAAKNAIMISA` ; Class = ?
Output: three

Task: Form: Item = `HMVQDSEWWRNYQSAHDYFIQNGHLNVLRSDKKNTKLYNWIVGQRSSRWNSQGRINLLNSIGFIWDT` ; Class = ?
Output: one

Task: Form: Item = `HMFPNQLLISRLSNQLSASERFAAVSSIAQLKNIDYDVLHVLVHTMNSDPNSNVRLAALEALSR` ; Class = ?
Output: one

Task: Form: Item = `HMVIREVNDNPVSAEELRLGDRVKVLSLGQNGEIVTLPDEKGELTVQVGILKAKVNLDDIMLI` ; Class = ?
Output: two

Task: Form: Item = `HMSNFGERLRALRQDRQMTLQQASKVTGVAQSTLSKMENNQLSPTFNLMQKLAIGLGIDMPQLFAPVK` ; Class = ?
Output: two

Task: Form: Item = `HMPGVLEVDTGGVAAVAYVDGVEVGRVPGELQIAAGTKTLMLKADRYLDYVQSLEIDGLGKRQLLVATLQS` ; Class = ?
Output: two

Task: Form: Item = `HMGQLVYPAGVYDVNKSYITDSNSAPYVLDKTDNNYYVLNTQMTWKGTEQDNKTPSQSYEESGGSVWLLFD` ; Class = ?
Output: two

----------
assay: soluble fraction after stress (log2 fold change); higher = more stays soluble; pooled small domains, quantitative proteomics; conditions: stress: 50 degC
measuredQuantity: soluble fraction (log2)

The recorded soluble fraction (log2) for `HMAISEEEATNLALERVPGASAQDLRIQLEFDDGVQKYEGDIIYDGKEYDFEIDANTGTFLEWSE` is -0.151

The recorded soluble fraction (log2) for `HMSTIKEKIIQYLDFKGISKYDFYQKTGVSNGVLSQKSGMSEDNIMRFLSYYDDINTDWLFYGKGEMIKT` is -1.13

The recorded soluble fraction (log2) for `HMLPQGKGTAMWLADHLAAASVTLDAGARKLLEDTLGEDMSRLPGVLRVLEATFGSDAGRLSAEDIEPFL` is 0.31

The recorded soluble fraction (log2) for `HMLETILQIGKDGVGENLVKQVNDALEARELIKGRVLDNNLELDARTAAQILAKATRSEVVQVIGTKFV` is -0.0922

----------
assay: soluble fraction after stress (log2 fold change); higher = more stays soluble; pooled small domains, quantitative proteomics; conditions: stress: 50 degC
Would you kindly list soluble fraction (log2) for each of these sequences?
Lab note: record the figure alone, no unit after it.

The recorded soluble fraction (log2) for `HMQDGTILPGQKTAIRSLATSGGYDSQDLDTYLATTYGKSIDGLTRTEGADVIKAFQAGTVAK` is 0.233

The recorded soluble fraction (log2) for `HMGTPEQVVVSSVLKETNEIVLKWPADGFMAKYKMDNLNLNFEPVHGQGVMGYFIGSRLIKLELV` is -0.251

The recorded soluble fraction (log2) for `HMYLLPVTSTELKGNYPNPFNPETTISFDLKDAERVNLSIYNLKGQLVRTLVNSDLPIGRHRLIWDGNDS` is -0.603

The recorded soluble fraction (log2) for `HMREGRERRLSQLLSYLRTHHILTRSEYVKLTGLSPTAASSELKTFVTAGHIVRKGIASHSTYRLPH` is -1.71

----------
assay: soluble fraction after stress (log2 fold change); higher = more stays soluble; pooled small domains, quantitative proteomics; conditions: stress: 50 degC
Would you kindly list soluble fraction (log2) for each of these sequences?
Lab note: record the figure alone, no unit after it.

The recorded soluble fraction (log2) for `HMDKFKDVGARIREARKVQKLSQADLAERLQISTSHMSDIENGKKNIGLDIFMRLTEALQVSADWLL` is -0.124

The recorded soluble fraction (log2) for `HMALPRYFFRTRENGAVLFKTPVNNHQNRLEMHQIAAINIRNETVKPLGDTVLTDEETELIADWMRERKTV` is -0.72

The recorded soluble fraction (log2) for `HMTAIWKTITATLTHDIATGKYAPGDRLPTEAQLAARFGVNRHTVRRAISDMNESGLTYSRRGAGVFVAQ` is -2.59

The recorded soluble fraction (log2) for `HMLTRYNVNYYYNGEILQRRKVAEGSAAERITYLSGSLEVTDWYTEADLLRKYDFTEPVTGDLNLYAFARI` is -1.05

The recorded soluble fraction (log2) for `HMDADGEPIKLDQIGISHLSFTVADVKSLGEELVAKGVKLAAPMEAFTSPEGRISSIFVYDPDGILLQFDD` is -0.104

The recorded soluble fraction (log2) for `HMEVVELTDDEKMILATLHDGPVEIGHIKQVVGLSGKKWDAATKSLRQKGLINVVLENEQKLMVK` is 0.422

The recorded soluble fraction (log2) for `HMSSIFTRIIAGEIPSYKVAEDENYYAFLDINPLTKGHTLVVPKMEVDYIFDLDDKTLAGMMLFAKKG` is -0.0969

The recorded soluble fraction (log2) for `HMEDQITNQQFTMTKQSILDLLVKKSYPPYELANELHLKKEEVLPIIRFLIAENEIHFKDGMLHLPH` is -0.167

The recorded soluble fraction (log2) for `HMKQYVEPASETEKMVVELWEKVLLTEKIGMHDDFFELGGHSLKAMRLISLYHQEFNVRLSLKSLFEKLK` is -0.121

The recorded soluble fraction (log2) for `HMVVRRLPFGFSKRFGVLVVPGTSNPVELLYREDASMQSLLEARRVVAQPVAFKKTDVESFNAQLARAHEN` is -1.23

The recorded soluble fraction (log2) for `HMNYKDQISRYFQQAFHIYPKYQTMKNEEGNFTSKIFKDDKMIIEGVGKSKKKAEQDVSRKALIHFNVL` is -0.262

The recorded soluble fraction (log2) for `HMNPNEVQIPDLVNKTEDEAEQILKDLKLKLVVKSEEYNENIEKGKIISQDPPYQENYTIKEHSEISIVIS` is 0.42

The recorded soluble fraction (log2) for `HMIINFDAIRLTTELNKYNRHKAIPNSFFDGTFTILDVRDLYDSLSPKVQKIADTLIEQYNVDVKQ` is -1.85

The recorded soluble fraction (log2) for `HMHDRRSGKVKWYSDRKGYGFIDLDGGEVFIHRSALIAFGALRLQAEDIITITVRETDRGLVVDQLFGIER` is -2.03

The recorded soluble fraction (log2) for `HMIETIIGAEGKVLETIDNFNQKGVVALAGKEWTARSADASIIPEGAKVSVVEISGVKLIVTQN` is 0.067

The recorded soluble fraction (log2) for `HMGLNPSILVKLGNANIKTIDNLADLASDELKEILEDISITSKEADEIIMRARSSWFEEDDKKEDNI` is 0.0789

The recorded soluble fraction (log2) for `HMDSATDRVALKELLNTLSARERTIITLRYFSDQTQTQVAKSLGISQVQVSRLENAILQRLRKL` is -1.94

Data provenance: the domain aggregation screens of Martell et al. (2025)
